Reference for the values: PubChem BioAssay (NCI)

Recorded TGI values for a group of compounds are listed next.
Test system: NCI/ADR-RES ovarian
Assay: NCI tumour cell line growth inhibition, 48 h

| Compound | Measured |
| --- | --- |
| NNc1[nH]c(=S)[nH]c1C(N)=O | > 100 µM |
| NC(=O)/C=C/NC(=O)/C=N\O | > 100 µM |
| COc1cc2nc3cc([N+](=O)[O-])ccc3c(NCCCNCC(C)(C)O)c2cc1OC | 25.3 µM |
| C=C(C)[C@@H]1CC[C@]2(COC3CCCCO3)CC[C@]3(C)[C@H](CC[C@@H]4[C@@]5(C)C=C(C=O)C(=O)C(C)(C)[C@@H]5CC[C@]43C)[C@@H]12 (some centres not stated) | 26.9 µM |
| CCC1CCc2nc3sc(C(=O)Nc4ccccc4C)c(N)c3cc2C1 (configuration not stated) | > 100 µM |
| Cc1cc(C)nc(SC2=C(Nc3cccc(Cl)c3C)C(=O)N(Cc3ccccc3)C2=O)n1 | > 160 µM |

Alright, here's another compound for you.
Can you look up the measured TGI of O=C1C(Cl)=C(Nc2cccc(O)c2)C(=O)N1c1ccccc1Cl for me? > 100 µM

---

Recorded TGI values for a group of compounds are listed next.
Tested on: HCT-15 colon
Test: NCI tumour cell line growth inhibition, 48 h

Solved cases below.
| Compound | TGI |
| --- | --- |
| O=C1/C(=C/c2ccco2)N=C(c2ccccc2)N1c1cc2cc(Sc3ccccc3)ccc2[nH]1 | > 25 µM |
| NC(Cc1ccccc1)(C(=O)O)C(=O)O | > 100 µM |

Please tell me: TGI of COc1ccc(C(=O)c2cc3c(N)c(C(=O)Nc4cccc(Cl)c4C)sc3nc2C)cc1 , system HCT-15 colon? > 25 µM

Here is the next compound: COc1ccc(-c2c(-c3cc(OC)c4c(c3)OCO4)noc2N)cc1 > 100 µM

---

Tested on: SK-MEL-5 melanoma
Experiment: NCI tumour cell line growth inhibition, 48 h
Quantity Measured: TGI

Solved cases below.
| Compound | Target Entity | TGI |
| --- | --- | --- |
| COc1ccc(Cn2cc3c(c2-c2cc(OC)c(OC)c(OC)c2)CCc2cnoc2-3)cc1[N+](=O)[O-] | SK-MEL-5 melanoma | > 71.6 µM |
| COC(=O)[C@@H]1C[C@@H]2c3ccccc3N(S(=O)(=O)c3ccccc3)[C@@H]2N1C(=O)OC | SK-MEL-5 melanoma | > 100 µM |
| CCCCC(=O)Oc1ccc2c(C)cc(=O)oc2c1 | SK-MEL-5 melanoma | > 100 µM |

Alright, here's another molecule for you.
Please tell me: TGI of O=C(O)Cn1c(=O)[nH]c(=O)c2c1ncn2Cc1ccccc1 , system SK-MEL-5 melanoma? > 100 µM

---

Test system: UACC-257 melanoma
Assay: NCI tumour cell line growth inhibition, 48 h
Recorded TGI values for a group of compounds are listed next.

Solved cases below.
| Compound | TGI |
| --- | --- |
| O=C1/C(=C/c2ccccc2)CN(C(=O)OCc2ccccc2)C/C1=C\c1ccccc1 | 28.3 µM |
| NCCN1CC2CCC(CC2)C1 | > 10 µM |

Alright, here's another compound for you.
Can you look up the measured TGI of Cn1c2c(c3ccccc31)CC(=S)N1CCCC(CC2O)C1 (stereo not drawn) for me? > 100 µM
